Assay: qHTS of pediatric cancer cell lines to identify multiple opportunities for drug repurposing: Primary screen for Rh41 cells (AID 1347108); note: nearly all actives have a fitted effect of over 70% in size
Conditions: Rh41 rhabdomyosarcoma viability, CellTiter-Glo luminescence, 48 h; series mostly up to 46 µM
Results filed as inconclusive are left out. Active and inactive are the calls of the source. Calls come from the whole dose curve; as a rule, active = well fitted cell-killing curve with a large enough effect; inconclusive = small, poorly fitted or top-dose-only effect; inactive = no such curve, though single readings can be large or run the other way.
Outcome field: choose from active, inactive

O=C1C[C@@H](c2ccc(O)cc2)Oc2cc(O)cc(O)c21    inactive
CCCCC1C(=O)N(c2ccccc2)N(c2ccccc2)C1=O    inactive

Call for entry C[N+]1(C)[C@@H]2CC(OC(=O)[C@H](CO)c3ccccc3)C[C@H]1[C@H]1O[C@@H]12 (stereo not given in full) :
inactive

Call for entry O=C(NCc1ccncc1)C12C[C@H]3C[C@@H](C1)CC(c1ccc(Cl)cc1)(C3)C2 :
active

* * *

Assay: Quantitative High-Throughput drug screen in 47 multiple myeloma cell lines against the NCATS MIPE library collection: KMS12PE_JCRB cell viability assay (AID 1918972); note: nearly all actives have a fitted effect of over 30% in size;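 for viability: 100% = DMSO only wells and 0% = wells with media alone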
Details: KMS12PE myeloma viability, CellTiter-Glo ATP, 48 h; series mostly up to 45.8 µM
Results filed as inconclusive are left out. Active and inactive are the calls of the source. The call rests on the fitted dose curve; in most records, active means well fitted cell-killing curve with a large enough effect; inconclusive means small, poorly fitted or top-dose-only effect, or effect the other way; inactive means no such curve, though single readings can be large or run the other way.
Outcome field: choose from active, inactive

COc1ccc(-c2cc(=O)c3c(O)cc(O)cc3o2)cc1O    active

In the following, a different compound is considered.
Call for entry C[C@]12CCC3c4ccc(O)cc4CCC3C1CCC2=O (stereo partly specified) :
inactive

* * *

Test: qHTS of pediatric cancer cell lines to identify multiple opportunities for drug repurposing: Primary screen for DAOY cells (AID 1347090); note: nearly all actives have a fitted effect of over 55% in size
Settings: DAOY medulloblastoma viability, CellTiter-Glo luminescence, 48 h; series mostly up to 46 µM
Inconclusive results are not listed. Calls of active or inactive are those of the source. Calls come from the whole dose curve; as a rule, active = well fitted cell-killing curve with a large enough effect; inconclusive = small, poorly fitted or top-dose-only effect; inactive = flat fitted curve, though single readings scatter.
Outcome field: choose from Yes (active), No (inactive)

Clc1ccc(Cn2c(CN3CCCC3)nc3ccccc32)cc1    No

Call for entry COc1ccc2cc(-c3nc(-c4ccc(S(C)=O)cc4)[nH]c3-c3ccncc3)ccc2c1 (centres undefined) :
No

Call for entry O=c1cc(-c2ccc(O)cc2)oc2cc(O)cc(O)c12 :
Yes

Call for entry Cc1[nH]c(C=C2C(=O)Nc3ccc(S(=O)(=O)Cc4c(Cl)cccc4Cl)cc32)c(C)c1C(=O)N1CCC[C@H]1CN1CCCC1 :
No

Call for entry CC(=Cc1ccccc1)C=C1SC(=S)N(CC(=O)O)C1=O :
No

Call for entry CC(C)(C)COc1ccc(-n2cc(C(=O)O)cn2)cc1C#N :
No

Call for entry CCN(CC)CCNC(=O)c1ccc(N)cc1 :
No

* * *

Target: Glutaminase kidney isoform, mitochondrial (Homo sapiens)
Assay: qHTS for Inhibitors of Glutaminase (GLS): LOPAC Validation (AID 624146); note: nearly all actives have a fitted effect of over 60% in size
Settings: glutaminase enzyme activity inhibition; series mostly up to 46.1 µM
Inconclusive results are not listed. The source made the active and inactive calls. The call rests on the fitted dose curve; in most records, active means well fitted inhibition curve with a large enough effect; inconclusive means small, poorly fitted or top-dose-only effect; inactive means no such curve, though single readings can be large or run the other way.
Outcome field: choose from yes (1) for active, no (0) for inactive

// known answers, use as guide
NCCS    no (0)
CC1=C(/C=C/C(C)=C/C=C/C(C)=C/C(=O)Nc2ccc(O)cc2)C(C)(C)CCC1    yes (1)
O=c1cc(-c2ccc(O)cc2)oc2cc(O)cc(O)c12    no (0)
CCCCCN(C)CCC(O)(P(=O)(O)O)P(=O)(O)O    no (0)

Call for entry CN(C)CCC(c1ccccc1)c1ccccn1 (stereo unspecified) :
no (0)

Call for entry COC(=O)[C@@H]1[C@H]2C[C@H]3c4[nH]c5ccccc5c4CCN3C[C@@H]2CC[C@@H]1O :
no (0)

* * *

Test: Quantitative High-Throughput drug screen in 47 multiple myeloma cell lines against the NCATS MIPE library collection: JIM3_ECACC cell viability assay (AID 1918963; note: nearly all actives have a fitted effect of over 35% in size)
Conditions: JIM3 myeloma viability, CellTiter-Glo ATP, 48 h; series mostly up to 45.8 µM
Inconclusive results are not listed. Calls of active or inactive are those of the source. The call rests on the fitted dose curve; in most records, active means well fitted cell-killing curve with a large enough effect; inconclusive means small, poorly fitted or top-dose-only effect; inactive means no such curve, though single readings can be large or run the other way.
Outcome field: choose from TRUE = active, FALSE = inactive

// known answers, use as guide
CC(C)OC(=O)CCCC=CC[C@@H]1[C@H](C=C[C@@H](O)COc2cccc(C(F)(F)F)c2)[C@H](O)C[C@@H]1O    TRUE
COc1ccc(-c2coc3cc(O)ccc3c2=O)cc1    FALSE
O=C1C(Cl)=C(NCCN2CCOCC2)C(=O)c2ncccc21    TRUE
CCN(CC)CCOc1ccc(C(=C(Cl)c2ccccc2)c2ccccc2)cc1    FALSE
CC(C)(C)C(=O)Oc1ccc2c(c1)nc(NC(=O)c1cccc([N+](=O)[O-])c1)n2CCCO    FALSE
CC(=O)OC1C(C)OC(Oc2c(-c3ccc(O)cc3)oc3cc(O)cc(O)c3c2=O)C(O)C1OC(C)=O (configuration not stated)    FALSE

Call for entry NC[C@@H]1O[C@@H](O[C@H]2[C@@H](O)[C@H](O[C@@H]3[C@@H](O)[C@@H](N)C[C@H](N)[C@H]3O[C@H]3O[C@H](CN)[C@@H](O)[C@@H](O)[C@H]3N)O[C@H]2CO)[C@H](N)[C@@H](O)[C@@H]1O :
FALSE

Call for entry CC1(C)CCC2=C(O1)c1ccccc1C(=O)C2=O :
TRUE

Call for entry C[C@]12CCC3c4ccc(O)cc4CCC3C1CCC2=O (some centres not stated) :
FALSE

* * *

Test: qHTS profiling of the MIPE4 collection as inhibitors of Plasmodium falciparum (HB3) proliferation (AID 743347);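 note: plate controls were DMSO vehicle wells for no effect and artemisinin wells for full effect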
Conditions: P. falciparum HB3 in erythrocytes, SYBR Green DNA, 72 h; at 28.5 µM (top of the series) unless noted
TEST_READOUT: growth, % of control (%)
Numbers only; they are read as %.

Some molecules with known growth, % of control results, for comparison:
CC(C)(C)Cn1c(N)nc2ccc(-c3[nH]c(C(C)(C)C)nc3-c3ccc(F)cc3)nc21    4.94
COC[C@@H](c1ccc(C(F)(F)F)cc1)N1CCN(C2(C)CCN(C(=O)c3c(C)ncnc3C)CC2)C[C@H]1C    28.5
C[C@H](NC(=O)c1sccc1OCc1ccc(Cl)cc1)c1ccccc1    3.82

Answer with the recorded growth, % of control for the molecule listed here: CCNc1cc(NC2CCC(O)CC2)nc(Nc2ccc3c(ccn3Cc3ccccc3)c2)n1 (stereo not given)
9.27

Answer with the recorded growth, % of control for the molecule listed here: CNC1CCC(N(Cc2cccc(-c3ccncc3)c2)C(=O)c2sc3c(F)ccc(F)c3c2Cl)CC1 (stereo not given)
6.39

* * *

Assay: qHTS of pediatric cancer cell lines to identify multiple opportunities for drug repurposing: Primary screen for OHS-50 cells (AID 1347103); note: nearly all actives have a fitted effect of over 40% in size
Conditions: OHS-50 osteosarcoma viability, CellTiter-Glo luminescence, 48 h; series mostly up to 57.3 µM
Results filed as inconclusive are left out. The source made the active and inactive calls. Calls come from the whole dose curve; as a rule, active = well fitted cell-killing curve with a large enough effect; inconclusive = small, poorly fitted or top-dose-only effect; inactive = no such curve, though single readings can be large or run the other way.
Outcome field: choose from active, inactive

CC[C@H]1OC(=O)[C@H](C)C(=O)[C@H](C)[C@@H](O[C@H]2O[C@H](C)C[C@H](N(C)C)[C@@H]2O)[C@](C)(OC)C[C@@H](C)C(=O)[C@H](C)[C@H]2N(CCCCn3cnc(-c4cccnc4)c3)C(=O)O[C@]12C    inactive
CCn1cc(C(=O)O)c(=O)c2ccc(C)nc21    inactive
CN1C[C@H]2c3ccccc3Oc3ccc(Cl)cc3[C@@H]2C1    active
COc1ccc2cc(-c3nc(-c4ccc(S(C)=O)cc4)[nH]c3-c3ccncc3)ccc2c1 (stereo not given)    inactive
O=C(Nc1cccc(Br)c1)c1cccc(S(=O)(=O)N2CCCCCC2)c1    active

Call for entry C=CCc1ccc(O)c(-c2ccc(O)c(CC=C)c2)c1 :
active

Call for entry OC[C@@H](O)[C@H](O)[C@H](O)[C@@H](O)CO :
inactive

Call for entry CC(C)NCC(O)COc1cccc2[nH]ccc12 (stereo not given) :
inactive

Call for entry C=C1C(=O)[C@@]23C(CC[C@@H]1[C@H]2O)[C@@]12CO[C@]3(O)[C@@H](O)[C@@H]1C(C)(C)CC[C@@H]2O (stereo not given in full) :
active

Call for entry O=C(Nc1ccccc1-c1cn2c(CN3CCNCC3)csc2n1)c1cnc2ccccc2n1 :
active

Call for entry COC(=O)[C@@H]1[C@H]2C[C@H]3c4[nH]c5ccccc5c4CCN3C[C@@H]2CC[C@@H]1O :
inactive

Call for entry CC(C)C(=O)Nc1ncc(-c2cc(C(F)F)nn2-c2c(Cl)cccc2Cl)s1 :
active

Call for entry CC=CC(=O)N(CC)c1ccccc1C :
inactive

Call for entry c1cc(-c2sc(-c3ccncc3)c(-c3ccncc3)c2-c2ccncc2)ccn1 :
inactive

Call for entry CON=C(C(=O)N[C@@H]1C(=O)N2C(C(=O)OCOC(=O)C(C)(C)C)=C(C=Cc3scnc3C)CS[C@H]12)c1csc(N)n1 :
inactive

Call for entry NC[C@@H]1O[C@@H](O[C@H]2[C@@H](O)[C@H](O[C@@H]3[C@@H](O)[C@@H](N)C[C@H](N)[C@H]3O[C@H]3O[C@H](CN)[C@@H](O)[C@@H](O)[C@H]3N)O[C@H]2CO)[C@H](N)[C@@H](O)[C@@H]1O :
inactive

Call for entry Nc1ncnc2c1nc(Cl)n2[C@@H]1O[C@H](CO)[C@@H](O)[C@@H]1O :
active

Call for entry CO[C@H]1C(=O)[C@]2(C)[C@@H](OC)C[C@H]3OC[C@@]3(OC(C)=O)[C@H]2[C@H](OC(=O)c2ccccc2)[C@]2(O)C[C@H](OC(=O)[C@H](O)[C@@H](NC(=O)OC(C)(C)C)c3ccccc3)C(C)=C1C2(C)C :
active

Call for entry CCCCCCCCCCCC1=C(O)C(=O)C=C(O)C1=O :
active

Call for entry CC(C)(C)c1cc(C(=O)O)c(NC(=O)Nc2ccc3[nH]ncc3c2)s1 :
inactive
